# pKd per record follows
Molecular target: T1, monkey C5-mmh (monkey, UniProt P01031 19-1676 (human entry), limits assumed)
T1 construct: Recombinant monkey C5 with a C-terminal myc-myc-hexahistidine tag
T1 chain: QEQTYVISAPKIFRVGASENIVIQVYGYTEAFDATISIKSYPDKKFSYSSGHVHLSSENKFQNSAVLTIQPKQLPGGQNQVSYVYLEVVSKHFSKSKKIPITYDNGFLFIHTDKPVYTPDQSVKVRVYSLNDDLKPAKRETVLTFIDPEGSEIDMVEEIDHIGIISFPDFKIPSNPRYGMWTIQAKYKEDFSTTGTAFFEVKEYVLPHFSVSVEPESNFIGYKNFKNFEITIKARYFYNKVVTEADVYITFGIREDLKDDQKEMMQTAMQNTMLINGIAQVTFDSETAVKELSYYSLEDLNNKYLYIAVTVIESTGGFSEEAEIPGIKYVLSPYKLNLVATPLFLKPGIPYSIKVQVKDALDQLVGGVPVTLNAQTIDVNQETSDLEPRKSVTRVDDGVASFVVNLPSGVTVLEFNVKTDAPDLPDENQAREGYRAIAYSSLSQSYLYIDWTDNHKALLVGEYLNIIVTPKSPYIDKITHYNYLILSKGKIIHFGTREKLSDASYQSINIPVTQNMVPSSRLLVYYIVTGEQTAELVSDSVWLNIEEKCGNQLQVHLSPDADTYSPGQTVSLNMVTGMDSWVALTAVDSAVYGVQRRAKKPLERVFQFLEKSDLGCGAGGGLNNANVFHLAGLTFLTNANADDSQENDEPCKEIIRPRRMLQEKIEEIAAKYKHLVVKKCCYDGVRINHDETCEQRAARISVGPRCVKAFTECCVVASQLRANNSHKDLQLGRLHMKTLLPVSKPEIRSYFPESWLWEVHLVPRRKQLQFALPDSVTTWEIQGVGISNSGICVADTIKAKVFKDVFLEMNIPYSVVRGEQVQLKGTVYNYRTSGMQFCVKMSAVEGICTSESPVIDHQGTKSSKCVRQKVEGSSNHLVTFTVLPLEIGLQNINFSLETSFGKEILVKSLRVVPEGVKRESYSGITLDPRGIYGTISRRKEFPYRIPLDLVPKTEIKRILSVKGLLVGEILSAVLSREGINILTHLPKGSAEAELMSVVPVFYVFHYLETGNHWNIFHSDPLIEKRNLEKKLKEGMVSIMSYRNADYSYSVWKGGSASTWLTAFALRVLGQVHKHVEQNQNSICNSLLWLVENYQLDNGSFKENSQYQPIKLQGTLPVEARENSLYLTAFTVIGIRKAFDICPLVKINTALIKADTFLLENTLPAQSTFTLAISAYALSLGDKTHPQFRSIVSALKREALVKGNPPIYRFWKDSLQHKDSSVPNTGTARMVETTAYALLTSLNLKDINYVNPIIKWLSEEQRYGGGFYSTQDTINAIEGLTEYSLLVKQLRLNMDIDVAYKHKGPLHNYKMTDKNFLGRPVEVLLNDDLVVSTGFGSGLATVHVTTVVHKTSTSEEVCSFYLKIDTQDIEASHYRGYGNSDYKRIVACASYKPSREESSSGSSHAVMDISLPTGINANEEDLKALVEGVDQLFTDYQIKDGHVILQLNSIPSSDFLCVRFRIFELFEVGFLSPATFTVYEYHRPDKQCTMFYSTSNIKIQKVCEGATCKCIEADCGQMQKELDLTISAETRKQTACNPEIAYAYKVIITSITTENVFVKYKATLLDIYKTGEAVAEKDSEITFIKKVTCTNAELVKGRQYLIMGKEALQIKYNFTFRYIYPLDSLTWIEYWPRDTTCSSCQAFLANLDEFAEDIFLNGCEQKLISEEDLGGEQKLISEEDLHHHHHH
Experiment: SPR, mAb captured via anti-hFc, 37C
pKd: −log10 of the molar value.
property_name: pKd

[[record]]
binder = "H4H12171P (antibody, human IgG4, V domains shown, Human IgG4 Fc with S108P hinge mutation (H4H)) VH: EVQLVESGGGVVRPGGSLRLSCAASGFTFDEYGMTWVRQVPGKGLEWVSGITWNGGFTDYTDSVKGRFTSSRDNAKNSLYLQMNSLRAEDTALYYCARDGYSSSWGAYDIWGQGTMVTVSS VL: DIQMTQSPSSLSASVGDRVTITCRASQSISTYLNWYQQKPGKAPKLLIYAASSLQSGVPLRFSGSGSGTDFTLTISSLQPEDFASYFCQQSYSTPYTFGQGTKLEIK"
property_name = "pKd"
endpoint_value = 8.73

[[record]]
binder = "H4H12166P9 (antibody, human IgG4, V domains shown, Histidine-mutated CDR variant of H4H12166P; human IgG4 Fc with S108P) VH: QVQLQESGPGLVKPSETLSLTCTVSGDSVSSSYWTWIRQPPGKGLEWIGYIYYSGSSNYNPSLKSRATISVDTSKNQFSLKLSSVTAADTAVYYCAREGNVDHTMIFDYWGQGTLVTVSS VL: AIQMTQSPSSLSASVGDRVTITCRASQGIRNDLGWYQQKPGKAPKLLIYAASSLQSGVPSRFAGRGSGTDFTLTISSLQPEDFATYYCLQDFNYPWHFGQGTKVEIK"
property_name = "pKd"
endpoint_value = 7.84

[[record]]
binder = "H4H12163P (antibody, human IgG4, V domains shown, Human IgG4 Fc with S108P hinge mutation (H4H)) VH: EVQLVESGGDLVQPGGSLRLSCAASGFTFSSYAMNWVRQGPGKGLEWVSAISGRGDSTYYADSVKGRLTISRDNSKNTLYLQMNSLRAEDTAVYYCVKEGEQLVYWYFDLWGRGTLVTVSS VL: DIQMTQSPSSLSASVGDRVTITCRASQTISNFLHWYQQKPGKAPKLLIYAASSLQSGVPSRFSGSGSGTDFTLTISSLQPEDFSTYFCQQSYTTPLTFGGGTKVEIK"
property_name = "pKd"
endpoint_value = 8.49

